Hey, just so you know, these numbers are from PubChem BioAssay.

Hi there, I'd appreciate the recorded z-score for every entry that follows.
test: mitochondrial membrane potential change in A549 cells, profiling panel, cell-based, JC-1 fluorescence, basal, 24 h, 100 nL (AID 1138); conditions: higher = more signal;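 also: A549 lung adenocarcinoma cells under basal conditions with no added stimulus; test concentration not given here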
Give bare numbers.

Kindly give each listed record's z-score.
1. COc1ccc([Si](C)(C)[C@H]2[C@H](CCn3cc(CCO)nn3)O[C@@]3(C(=O)N(Cc4ccc(N5CCOC5=O)cc4)c4ccccc43)[C@@H]2C)cc1
2. COCCOC(=O)N1C(=O)[C@@]2(c3cc(C#CCC(C(=O)OC)C(=O)OC)ccc31)[C@H](c1ccccc1OCCO)N1[C@H](c3ccccc3)[C@H](c3ccccc3)OC(=O)[C@H]1[C@@H]2C(N)=O

Reply text:
1. 1.26
2. 0.833

###

system: PRMT1 (protein arginine N-methyltransferase 1); assay: PRMT1 binders on small-molecule microarrays, primary screen, biochemical, small-molecule microarray, 635 nm fluorescence (AID 1088); conditions: small-molecule microarray binding, higher = more signal;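 also: binding of Prmt1 protein to compounds spotted on small-molecule microarray slides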
Hi there, I'd appreciate the recorded composite z-score for every entry that follows.
Give bare numbers.

COCCCNC(=O)[C@@]1(CCC(=O)OC(C)(C)C)N=C(c2ccc(OCCCO)cc2)O[C@H]1c1ccccc1CN=[N+]=[N-] | 1.26

Kindly give each listed record's composite z-score.
1. C=CCNC(=O)[C@@H]1[C@H]2C(=O)O[C@H](c3ccccc3)[C@H](c3ccccc3)N2[C@H](c2ccc(O)cc2)[C@@]12C(=O)N(C(=O)OCCOC)c1ccccc12
2. Cc1cc(C)c(C(O)C2C=CC3C(=O)N(C)C(=O)C3N2Nc2ccccc2)c(C)c1 (configuration not stated)
3. CS(=O)(=O)CCOC(=O)C1=CC(CCCO)=CC(c2cccs2)N(Cc2cc3c(cc2Br)OCO3)C=C1C(=O)OCCS(C)(=O)=O (configuration not stated)
4. CN(C)C(=O)[C@@]1(CCC(=O)OC(C)(C)C)N=C(c2ccc(OCCCO)cc2)O[C@H]1c1ccccc1
5. N#Cc1ccc(NN2C(C(O)c3cccs3)C=CC3C(=O)N(c4ccccc4)C(=O)C32)cc1 (configuration not stated)

Reply text:
1.53
0.378
1.56
1.41
0.843

What the record says about "CN(C)CCCCNC(=O)[C@H]1C[C@H]2C(=O)N[C@@H](Cc3ccccc3)C(=O)N2[C@H]1c1ccc(O)cc1" : composite z-score is 1.54

###

assay: inhibitors of hydroxyurea-induced Chk1 phosphorylation, primary screen, imaging, HeLa, phospho-Chk1 antibody, percent positive cells (AID 1186); conditions: hydroxyurea-induced phospho-Chk1 immunofluorescence imaging, higher = more signal
We use -0.1 as the dividing line for z-score: on or above the line is Y, below is N.

Please review the following examples before continuing.
CN1C(=O)C2C=CC(C(O)c3ccccn3)N(Nc3ccccc3)C2C1=O (stereo not given) | N
CC=CC(O)C1C=CC2C(=O)N(c3ccccc3)C(=O)C2N1Nc1ccc(C(C)C)cc1 (stereo not given) | Y
CCCCC(O)C1C=CC2C(=O)N(C3CCCCC3)C(=O)C2N1Nc1ccc(OC)cc1 (stereo not given) | Y

Inquiry: Exam item: decide whether the reported z-score for C=CCC(OC(C)=O)[C@@H]1[C@@H](N(Cc2cccc3ccccc23)C(=O)c2cccc3ccccc23)c2cc(OCCCO)ccc2N1C(=O)c1ccc2ccccc2n1 (stereo not given in full) is at least -0.1.
Reply text: Y

Inquiry: Exam item: decide whether the reported z-score for "O=C1O[C@@H](c2ccccc2)[C@@H](c2ccccc2)N2[C@@H](c3ccccc3OCCO)[C@]3(C(=O)Nc4ccc(C#CC5(O)CCCCCC5)cc43)[C@@H](C(=O)Nc3nc4ccccc4s3)[C@H]12" is at least -0.1.
Reply text: Y

Inquiry: Exam item: decide whether the reported z-score for "COCCOC(=O)N1C(=O)[C@@]2(c3cc(C#CCC(C(=O)OC)C(=O)OC)ccc31)[C@H](c1ccccc1OCCO)N1[C@H](c3ccccc3)[C@H](c3ccccc3)OC(=O)[C@H]1[C@@H]2C(=O)N1CCc2cc(OC)c(OC)cc2C1" is at least -0.1.
Reply text: N
